study-system: T1, Human membrane IL-6R on cells (human, UniProt P08887 20-468)
T1 sequence (looked up): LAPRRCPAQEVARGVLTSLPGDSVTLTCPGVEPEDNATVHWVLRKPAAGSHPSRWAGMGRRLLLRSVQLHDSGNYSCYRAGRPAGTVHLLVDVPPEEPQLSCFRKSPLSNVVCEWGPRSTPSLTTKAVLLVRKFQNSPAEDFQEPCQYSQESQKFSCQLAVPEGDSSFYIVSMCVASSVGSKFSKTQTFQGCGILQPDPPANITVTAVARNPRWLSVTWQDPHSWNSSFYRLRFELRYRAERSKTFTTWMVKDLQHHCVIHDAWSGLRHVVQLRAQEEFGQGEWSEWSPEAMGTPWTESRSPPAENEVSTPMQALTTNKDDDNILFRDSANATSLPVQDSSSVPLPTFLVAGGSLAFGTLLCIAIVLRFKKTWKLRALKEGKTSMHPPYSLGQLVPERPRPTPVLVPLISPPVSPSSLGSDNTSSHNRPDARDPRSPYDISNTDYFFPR
test-method-notes: cell-based or functional assay
Hi! Just check whether IC50 (nM), TF1 cell proliferation is below 9 nM. Below gives t, equal or above gives f.

Study these solved cases before continuing.
binder | label-value
IL6R03 (VHH, also called PMP31A4; not shown: C-terminal c-myc and (His)6 tags) VHH: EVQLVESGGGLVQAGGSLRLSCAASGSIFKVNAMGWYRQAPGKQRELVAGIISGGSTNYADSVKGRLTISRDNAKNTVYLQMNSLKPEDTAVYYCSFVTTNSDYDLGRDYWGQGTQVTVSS | f
IL6R11 (VHH, also called PMP35E11; not shown: C-terminal c-myc and (His)6 tags) VHH: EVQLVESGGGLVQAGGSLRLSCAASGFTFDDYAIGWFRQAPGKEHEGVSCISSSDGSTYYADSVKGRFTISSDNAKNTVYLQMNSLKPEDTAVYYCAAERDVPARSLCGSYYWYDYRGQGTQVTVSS | f
IL6R12 (VHH, also called PMP35F4; not shown: C-terminal c-myc and (His)6 tags) VHH: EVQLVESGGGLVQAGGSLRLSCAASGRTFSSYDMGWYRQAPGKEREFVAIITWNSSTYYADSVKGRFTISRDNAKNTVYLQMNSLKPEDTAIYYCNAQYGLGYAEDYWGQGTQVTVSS | t
IL6R08 (VHH, also called PMP34A12; not shown: C-terminal c-myc and (His)6 tags) VHH: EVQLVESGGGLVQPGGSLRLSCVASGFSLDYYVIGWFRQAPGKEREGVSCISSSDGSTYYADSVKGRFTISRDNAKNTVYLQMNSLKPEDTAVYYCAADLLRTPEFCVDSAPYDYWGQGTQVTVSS | f

Just wondering, is IC50 (nM), TF1 cell proliferation of IL6R06 (VHH, also called PMP32E2; not shown: C-terminal c-myc and (His)6 tags) VHH: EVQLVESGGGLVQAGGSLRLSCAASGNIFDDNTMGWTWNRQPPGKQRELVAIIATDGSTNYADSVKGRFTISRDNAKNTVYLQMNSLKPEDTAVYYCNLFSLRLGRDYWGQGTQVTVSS below 9 nM?
f
